The reported numbers originate from the supplement of paper PMC9170038.

System: MS2 coat protein
Assay Summary: apparent KD of MS2 coat protein; designed switch direction (-1 OFF switch, 1 ON switch): -1; higher = weaker reporter binding
Reported Conditions: input ligand: none
For each of the sequences below, state its apparent KD of MS2 coat protein.
Express your answer in nM, writing the number without its unit.

Given the sequence GCAGAAUGAGUUAGGAUAUGAUGAUUUUUCGGAUAUCAGAAGGAACUUGAGGAUCACCCAAGUUAAGAUAGGGU [JR_BMEx4_Sub066] (Eterna round: R97, puzzle: Brourd's mod of Exclusion 4) , what is its reported apparent KD of MS2 coat protein?
170

Now this one: CUGUACUGAGGAUAUACAUGAGGAUCACCCAUGUUCUUCAGCUAGGAAACUAGCAAAGGUAGAAGGCAGUACAG [Mat - Exclusion 3 - Eli Mod - D69] (Eterna round: R97, puzzle: Exclusion 3)
34.3

Also ACAAGCUUUUGCUCGUCUUACAUGAGGAUCACCCAUGUCGGGUGCUUGCUUACGUCCAGCAUCUGGACCGUAGCAGU [-24.6, -43.1 kcal, 19% A] (Eterna round: R97, puzzle: Sensor, turn-off variant 1) ?
165

Same question for CCUCAGUGAGGAUAUCAGUAAUGUAAGACGUACAGUCGCACUGAGAAGGUACAUGAGGAUCACCCAUGUUAGUU [Eternabot (L1) Solution 50] (Eterna round: R97, puzzle: Exclusion 4) please.
23
